Values were extracted from PubChem BioAssay (NCI).

Test system: UACC-62 melanoma
Experiment: NCI tumour cell line growth inhibition, 48 h; in the data active = GI50 below about 0.43 µM; inactive = the rest
Outcome codes: 1 for active, -1 for inactive

COMPOUND | CLASSIFICATION
C=C1N(C)c2ccc(Cl)cc2C1(C)C | -1
CC[C@]12CCCN3CC[C@]4(C(=C(C(=O)OC)C1)Nc1ccccc14)[C@@H]32 | -1
O=C(CCl)Nc1ccc2c(c1)C(=O)c1ccc(NC(=O)CCl)cc1C2=O | 1
CC([O-])C(=O)[O-].NCC1CCC1CN.[Pt+4] (configuration not stated) | -1
COc1ccc(/C=C/C(=O)c2ccc(Nc3ccnc4cc(Cl)ccc34)cc2)cc1 | -1
CC/C=C\C/C=C\C[C@H]1C/C=C2/C(=O)C=C[C@H]2C/C=C\CCC(=O)O1 | -1
CN1CCCN(C(c2ccccc2)c2ccc(Br)cc2)CC1 (configuration not stated) | -1
